// data source = patent US20110091971A1

test system: H1 or H9 human embryonic stem cells; assay: Activin A bioassay: differentiation of human embryonic stem cells to definitive endoderm, cell number and SOX17 intensity by high content analysis (96-well, four days); assay type: cell-based; conditions: supernatant concentration 10x, assay dilution 1:20;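 further: total fluorescence of the cell multiplied by cell area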
This section presents molecules with their documented Sox 17 Intensity average values.
Assay Readout: Sox 17 Intensity average

- ACTN14: activin A variant peptide, SEQ ID 15 (protein) GLECDGKVNLCCKKQHFVSFKDIGWNDWIIAPSGYHANRCDGLCPSHIAGTSGSSLSFHSTVINHYRMRGHSPFAQMGSCCVPTKLRPMSMLYYDDGQNIIKKDIQNMIVEECGCS: 3.66E+06
- ACTN71: activin A variant peptide, SEQ ID 72 (protein) GLECDGKVNICCKKQSFGQAKDIGWNDWIIAPSGYHGGGCTGECPSHIAGTSGSSLSFHSTVINHYRMRGHSPFANLKSCCSPTKLRPMSMLYYDDGQNIIKKDIQNMKVEECGCT: 3.61E+05
- ACTN44: activin A variant peptide, SEQ ID 45 (protein) GLECDGKVNLCCKKQNFVSFKDIGWNDWIIAPSGYHANECSGKCPSHIAGTSGSSLSFHSTVINHYRMRGHSPFSDMGACCIPTKLRPMSMLYYDDGQNIIKKDIQNMIVEECGCS: 3.24E+05
